Sourced from patent US20120315277A1

- Test system: Influenza A (A/Puerto Rico/8/34) virus
- Assay type: binding, influenza A virus H1N1
Reported Virus ELISA OD A450 by item:
Kindly provide the number alone.

molecule="3245_O19 (antibody, V domains shown) VH: EVQLVESGGGLVQPGGSLRLSCTASGLSVSSTYMNWVRQAPGKGLEWVSVFYSETRTYYADSVKGRFTVSRHNSNNTLYLQMNSLRVEDTAVYYCARVQRLSYGMDVWGQGTTVTVSS VL: DIQMTQSPSSLSASVGDRVTITCRASQSISTYLNWYQKRPGKAPKLLVYGASTLQSGVPSRFSGSGSGTDFTLTIASLQPEDSATYYCQQTYSIPLFGQGTRLEIK" property_label="Virus ELISA OD A450" result=3.51
molecule="3248_P18 (antibody, V domains shown) VH: QVQLQESGPGLVKPSETLSLTCTVSGGSISAYHWSWIRQPPGKGLEWIGHIFDSGSTYYNPSLKSRVTISLDASKNQLSLRLTSVTASDTAIYYCARPLGSRYYYGMDVWGQGTTVTVSS VL: DIQMTQSPSSLSASVGDRVTITCRASQSISRYLNWYQQKPGKAPKLLIYGASTLQNGAPSRFSGSGSGTDFTLTISSLQPEDSATYLCQQSYSVPAFGGGTKVEVK" property_label="Virus ELISA OD A450" result=0.56

Provide only the value of recorded Virus ELISA OD A450 for 3253_P10 (antibody, V domains shown) VH: QVQLQESGPGLLKPSDTLALTCTVSGGSITSDYWSWIRQPPGRGLDWIGFFYNGGSTKYNPSLKSRVTISADTSKNQLSLKLTSVTAADTGVYYCARHDAKFSGSYYVASWGQGTRVTVSS VL: DIQMTQSPSSLSASVGDRVTISCRASQSISTYLNWYQQQPGKAPKVLISGATDLQSGVPSRFSGSGSGTDFTLTISSLQPEDFATYYCQQSYNTPLIFGQGTKLEIK 0.50

Given 3244_I10 (antibody, V domains shown) VH: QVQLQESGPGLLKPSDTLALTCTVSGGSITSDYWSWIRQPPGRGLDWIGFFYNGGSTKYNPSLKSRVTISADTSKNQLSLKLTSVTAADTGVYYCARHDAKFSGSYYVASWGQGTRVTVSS VL: DIQMTQSPSSLSASVGDRVTISCRASQSISTYLNWYQQQPGKAPKVLIFGATNLQSGVPSRFSGSGSGTDFTLTISSLQPEDFATYYCQQSYNTPLIFGQGTKLEIK , respond with its Virus ELISA OD A450. 3.01

Supply measured Virus ELISA OD A450 of 3242_P05 (antibody, V domains shown) VH: DMQLVESGGGLVPPGGSLRLSCAASGFSVSDNYINWVRQAPGKGLDWVSVFYSADRTSYADSVKGRFTVSSHDSKNTVYLQMNSLRAEDTAVYYCARVQKSYYGMDVWGQGTTVTVSS VL: GIQMTQSPSSLSASVGDRVTITCRASQSISRYLNWYLQKPGKAPKLLISGASSLQSGVPSRFSGTGSGTEFTLTISSLQPEDFATYYCQQTFSIPLFGQGTKVEIK in your reply. 0.50

Return Virus ELISA OD A450 (reported value) for this molecule: 3259_J21 (antibody, V domains shown) VH: QVQLQESGPRVVRPSETLSLTCTVSGGSISSYNWIWIRQPPGKGLEWIGHIYDYGRTFYNSSLQSRPTISVDASKNQLSLRLTSVTASDTAVYYCARPLGILHYYAMDLWGQGTTVTVSS VL: DIQMTQSPLSVSVSVGDRVTIACRASQSIDKFLNWYQQKPGKAPKLLIYGASNLHSGAPSRFSASGSGTDFTLTITNIQTEDFATYLCQQSFSVPAFGGGTKVEIK 2.40
